Source of measurements: paper PMC8041284

Reported inhibition at 10 µM is given for each of the following compounds.
biological target: BTK (Homo sapiens, UniProt Q06187); experiment: biochemical; details: read-out: BTK inhibition (%), 0.75 uM BTK, […] probe 3l, 15 min preincubation
Sequence (Q06187 402-655 limits assumed): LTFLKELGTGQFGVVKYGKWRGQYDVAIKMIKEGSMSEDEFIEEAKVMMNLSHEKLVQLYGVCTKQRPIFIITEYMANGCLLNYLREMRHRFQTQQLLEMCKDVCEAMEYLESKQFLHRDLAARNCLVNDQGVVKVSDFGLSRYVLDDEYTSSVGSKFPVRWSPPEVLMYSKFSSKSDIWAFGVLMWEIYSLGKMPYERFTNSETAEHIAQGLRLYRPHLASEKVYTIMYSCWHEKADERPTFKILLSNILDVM
Your answer should be a plain number; it is taken to be in %.

Worked cases, inhibition at 10 µM given:
[[record]]
compound = "Cc1ccc(Nc2c(F)cccc2Cl)c(CC(=O)O)c1"
unit_of_measurement = "%"
assay_result = 6.9

[[record]]
compound = "N#Cc1cc(CN2CCC(Nc3ncnc4sc(Cl)cc34)CC2)ccc1F"
unit_of_measurement = "%"
assay_result = 2.3

[[record]]
compound = "Cc1ccc(NCCN(C)CCNc2ccnc3cc(Cl)ccc23)c2c(=O)c3ccccc3sc12"
unit_of_measurement = "%"
assay_result = 6.8

[[record]]
compound = "O=C(O)C(O)C(O)C(=O)O (stereo not drawn)"
unit_of_measurement = "%"
assay_result = -0.9

[[record]]
compound = "C=C(C)[C@@H]1CCC2=CC(=O)C[C@@H](C)[C@]2(C)C1"
unit_of_measurement = "%"
assay_result = 12.4


-- ask Reported inhibition at 10 µM for "CC(C)c1cc(-c2n[nH]c(=O)n2-c2ccc3c(ccn3C)c2)c(O)cc1O" : what is it?
-- reply 12.4

-- ask Reported inhibition at 10 µM for "C[C@@H]1CC[C@@]2(OC1)O[C@H]1C[C@H]3[C@@H]4CC=C5C[C@@H](O[C@@H]6O[C@H](CO)[C@@H](O)[C@H](O)[C@H]6O)CC[C@]5(C)[C@H]4CC[C@]3(C)[C@H]1[C@@H]2C" : what is it?
-- reply -20.1

-- ask Reported inhibition at 10 µM for "CCOC(=O)c1cc2ccccc2oc1=O" : what is it?
-- reply -16.2

-- ask Reported inhibition at 10 µM for "Cc1cc(=O)oc2ccc(O)cc12" : what is it?
-- reply 17

-- ask Reported inhibition at 10 µM for "O=C(N[C@@H](c1ccccc1)[C@@H](O)C(=O)O)c1ccccc1" : what is it?
-- reply 9.3

-- ask Reported inhibition at 10 µM for "COc1c(O)c(C)cc2c1C(=O)c1c(O)cccc1C2=O" : what is it?
-- reply 64.1

-- ask Reported inhibition at 10 µM for "C[N+]1(C)CCC[C@H]1C(=O)[O-]" : what is it?
-- reply 7.8

-- ask Reported inhibition at 10 µM for "NC(=O)CN1CCCC1=O" : what is it?
-- reply -16.3

-- ask Reported inhibition at 10 µM for "C[C@]12CC[C@@H]3c4ccc(O)cc4CC[C@H]3[C@@H]1CC[C@@H]2O" : what is it?
-- reply 4.1

-- ask Reported inhibition at 10 µM for "C[C@H]1[C@H](C)CC[C@]2(C(=O)O[C@@H]3O[C@H](CO[C@@H]4O[C@H](CO)[C@@H](O[C@@H]5O[C@@H](C)[C@H](O)[C@@H](O)[C@H]5O)[C@H](O)[C@H]4O)[C@@H](O)[C@H](O)[C@H]3O)CC[C@]3(C)C(=CC[C@@H]4[C@@]5(C)C[C@@H](O)[C@H](O)[C@@](C)(CO)[C@@H]5CC[C@]43C)[C@H]12" : what is it?
-- reply -15.9

-- ask Reported inhibition at 10 µM for "COc1ccc(Cn2ccc3ccc(C(=O)NO)cc32)cc1" : what is it?
-- reply 33.5

-- ask Reported inhibition at 10 µM for "NC(=O)N1c2ccccc2C=Cc2ccccc21" : what is it?
-- reply 9.3

-- ask Reported inhibition at 10 µM for "Cc1sc2c(c1C)C(c1ccc(Cl)cc1)=N[C@@H](CC(=O)Nc1ccc(O)cc1)c1nnc(C)n1-2" : what is it?
-- reply 3.1

* * *

target: BTK (Homo sapiens); assay: biochemical; settings: read-out: BTK inhibition (%), 0.75 uM BTK, […] probe 3l, 15 min preincubation
# label = 1 (yes) if inhibition at 10 µM >= 10% else 0 (no)

[[record]]
molecule = "C=CC(=O)Nc1cccc(Oc2nc(Nc3ccc(N4CCN(C)CC4)cc3OC)ncc2Cl)c1"
system = "BTK (Homo sapiens)"
label = "1 (yes)"


-- ask For this molecule, is measured inhibition at 10 µM 10% or higher? "COc1ccc(-c2cc(=O)c3c(O)cc(O[C@@H]4O[C@H](CO)[C@@H](O)[C@H](O)[C@H]4O[C@@H]4O[C@@H](C)[C@H](O)[C@@H](O)[C@H]4O)cc3o2)cc1O"
-- reply 0 (no)

-- ask For this molecule, is measured inhibition at 10 µM 10% or higher? "C[C@@H]1O[C@@H](OC[C@H]2O[C@@H](Oc3cc(O)c4c(=O)cc(-c5ccc(O)cc5)oc4c3)[C@H](O[C@@H]3O[C@@H](C)[C@H](O)[C@@H](O)[C@H]3O)[C@@H](O)[C@@H]2O)[C@H](O)[C@H](O)[C@H]1O"
-- reply 1 (yes)

-- ask For this molecule, is measured inhibition at 10 µM 10% or higher? CCC1=C(C)CN(C(=O)NCCc2ccc(S(=O)(=O)NC(=O)NC3CCC(C)CC3)cc2)C1=O (stereo not drawn)
-- reply 0 (no)

-- ask For this molecule, is measured inhibition at 10 µM 10% or higher? CC(C)NCC(O)c1ccccc1Cl (stereo not drawn)
-- reply 1 (yes)

* * *

target: EGFR (Homo sapiens, UniProt P00533); assay: In vitro kinase activity assay (Nanosyn); type: biochemical; settings: EGFR kinase activity assay, 0.75 nM EGFR, 5 μM ATP
Sequence (P00533 25-1210): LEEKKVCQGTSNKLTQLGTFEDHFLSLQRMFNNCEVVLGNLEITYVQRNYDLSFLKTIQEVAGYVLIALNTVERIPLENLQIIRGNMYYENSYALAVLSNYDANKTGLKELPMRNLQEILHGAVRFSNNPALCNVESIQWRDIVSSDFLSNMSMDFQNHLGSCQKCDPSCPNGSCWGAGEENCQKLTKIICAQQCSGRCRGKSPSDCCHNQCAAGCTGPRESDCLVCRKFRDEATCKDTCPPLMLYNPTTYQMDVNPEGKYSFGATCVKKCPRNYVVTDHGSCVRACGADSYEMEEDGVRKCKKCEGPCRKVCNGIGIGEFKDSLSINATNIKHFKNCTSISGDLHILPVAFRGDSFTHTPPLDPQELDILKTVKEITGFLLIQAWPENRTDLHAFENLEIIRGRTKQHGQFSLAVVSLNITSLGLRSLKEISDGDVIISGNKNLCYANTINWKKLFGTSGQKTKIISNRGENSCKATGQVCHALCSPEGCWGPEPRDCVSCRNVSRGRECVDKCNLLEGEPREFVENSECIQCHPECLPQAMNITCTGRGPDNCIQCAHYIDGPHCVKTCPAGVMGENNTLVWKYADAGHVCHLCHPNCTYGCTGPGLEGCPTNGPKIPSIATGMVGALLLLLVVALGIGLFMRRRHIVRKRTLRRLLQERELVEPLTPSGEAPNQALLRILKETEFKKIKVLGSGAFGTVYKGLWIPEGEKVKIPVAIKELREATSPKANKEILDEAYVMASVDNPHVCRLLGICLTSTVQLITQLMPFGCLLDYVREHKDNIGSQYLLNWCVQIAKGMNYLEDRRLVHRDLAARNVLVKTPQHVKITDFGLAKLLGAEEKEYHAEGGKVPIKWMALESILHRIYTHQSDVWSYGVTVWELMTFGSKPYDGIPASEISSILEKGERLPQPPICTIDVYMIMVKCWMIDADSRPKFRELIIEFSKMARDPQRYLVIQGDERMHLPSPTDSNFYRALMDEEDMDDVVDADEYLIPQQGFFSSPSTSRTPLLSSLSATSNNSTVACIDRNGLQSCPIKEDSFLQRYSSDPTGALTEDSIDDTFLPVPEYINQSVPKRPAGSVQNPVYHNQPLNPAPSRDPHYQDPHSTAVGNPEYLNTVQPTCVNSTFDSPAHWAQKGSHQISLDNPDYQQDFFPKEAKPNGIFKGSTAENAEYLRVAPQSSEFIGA
endpoint label: IC50

-- ask Reported IC50 for C=C(COc1ccc2ccc(=O)oc2c1)C(=O)Nc1cc2c(Nc3ccc(F)c(Cl)c3)ncnc2cc1OC [4b] : what is it?
-- reply 3.3 nM

* * *

Reported inhibition at 10 µM is given for each of the following molecules.
biological target: BTK (Homo sapiens, UniProt Q06187); assay: biochemical; settings: read-out: BTK inhibition (%), 0.75 uM BTK, […] probe 3l, 15 min preincubation
Your answer should be a plain number; it is taken to be in %.

Worked cases, inhibition at 10 µM given:
[[record]]
molecule = "CC(=O)c1ccc(NN=C(C(N)=O)C2=NC(C)(C)Cc3ccccc32)cc1 [PCM-0215663]"
unit_of_measurement = "%"
assay_result = 13.1

[[record]]
molecule = "CC[C@H](c1ccc(O)cc1)[C@@H](CC)c1ccc(O)cc1 [PCM-0095223]"
unit_of_measurement = "%"
assay_result = -11.7

[[record]]
molecule = "COc1cc(OC)c(/C=C/S(=O)(=O)Cc2ccc(OC)c(NCC(=O)O)c2)c(OC)c1 [PCM-0094976]"
unit_of_measurement = "%"
assay_result = -2.1


-- ask Under BTK (Homo sapiens, UniProt Q06187): inhibition at 10 µM value of NS(=O)(=O)c1ccc(NC(=O)Nc2ccc(F)cc2)cc1 [PCM-0095531] ?
-- reply -15.6

-- ask Under BTK (Homo sapiens, UniProt Q06187): inhibition at 10 µM value of COC(=O)c1c2c(c3ccccc3c1O)OC(C)(C)C=C2 [PCM-0216437] ?
-- reply -27

-- ask Under BTK (Homo sapiens, UniProt Q06187): inhibition at 10 µM value of O=C(c1ccc(F)c(F)c1Nc1ccc(I)cc1F)N1CC(O)([C@@H]2CCCCN2)C1 [PCM-0215480] ?
-- reply -5.5

* * *

molecular target: BTK (Homo sapiens); test: biochemical; details: read-out: BTK inhibition (%), 0.75 uM BTK, […] probe 3l, 15 min preincubation
Reported inhibition at 10 µM is given for each of the following molecules.
Your answer should be a plain number; it is taken to be in %.

[[record]]
molecule = "Cc1nnsc1C(=O)Nc1ccc(-n2nc(C(F)(F)F)cc2C(F)(F)F)cc1"
unit_of_measurement = "%"
assay_result = 22.4

[[record]]
molecule = "Cn1cc(/C=C2\\C(=O)Nc3cccnc32)c2ccccc21"
unit_of_measurement = "%"
assay_result = 22.8

[[record]]
molecule = "Cc1nc(Nc2cnn(C3CCNCC3)c2)nc2c1N(C)C(=O)c1cc3ccccc3cc1N2C"
unit_of_measurement = "%"
assay_result = 30.3

[[record]]
molecule = "N#CC(C#N)=NNc1ccc(OC(F)(F)F)cc1"
unit_of_measurement = "%"
assay_result = 52.5

[[record]]
molecule = "COc1ccc(CCC(=O)Nc2nc3ccc(Cl)cc3s2)cc1OC"
unit_of_measurement = "%"
assay_result = -0.8

[[record]]
molecule = "CN(C)C(=O)CCSC(SCCC(=O)O)c1cccc(/C=C/c2ccc3ccc(Cl)cc3n2)c1 (stereo not shown)"
unit_of_measurement = "%"
assay_result = 10.8


-- ask Reported inhibition at 10 µM for "C/C(=C(/CCOC(=O)C(C)C)SS/C(CCOC(=O)C(C)C)=C(\C)N(C=O)Cc1cnc(C)nc1N)N(C=O)Cc1cnc(C)nc1N" : what is it?
-- reply -16.2

-- ask Reported inhibition at 10 µM for "C=C1[C@@H]2CC[C@@H](C2)[C@]1(C)CC/C=C(\C)CO" : what is it?
-- reply 0

-- ask Reported inhibition at 10 µM for "Cn1cc(C[C@@H](N)C(=O)O)c2ccccc21" : what is it?
-- reply -11.1

-- ask Reported inhibition at 10 µM for "Nc1ccc(-c2cccc(C(=O)Nc3cnc4nc(N5CCOCC5)oc4c3)n2)cn1" : what is it?
-- reply 2.1

-- ask Reported inhibition at 10 µM for CC(C)C(C(=O)O)N1C(=O)/C(=C\c2ccc(Br)cc2)SC1=S (stereo not shown) : what is it?
-- reply -3.1

-- ask Reported inhibition at 10 µM for "c1ccc2c(CCNc3ccc(Nc4ccncc4)cc3)c[nH]c2c1" : what is it?
-- reply 26.9
